These data points were gathered from the RNAGym collection of RNA variant scans (doi:10.1073/pnas.2313332121).

B1: TPR t1 (parent)
chain: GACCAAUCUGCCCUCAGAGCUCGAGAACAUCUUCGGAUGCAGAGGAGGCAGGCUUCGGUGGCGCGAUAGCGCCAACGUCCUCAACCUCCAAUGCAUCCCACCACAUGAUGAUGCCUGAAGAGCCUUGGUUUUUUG

# Variants of: B1
# assayInfo: polymerase ribozyme fitness, log enrichment relative to wild type (log ratio); higher = more active; in vitro selection for triplet polymerase activity
Parameter polymerase ribozyme fitness (log ratio): see the listing below.
Format: numeric value only, no unit, no commentary.

A selection of reference data follows.
{"querySequence": "GACCAAUCUGCCCUCAGAGCUCGAGAACAUCUUCGGAUGCAGAGGAGGCAGGCUUCGGUGGCGCGAUAGCGCCAACAUCCUCCACUUCCAAUGCAUCCCACCACAUGAUGAUGCCAGAACAGCCAUGGUUUUUUG [G77A A83C C86U U116A G120C U125A]", "polymerase ribozyme fitness (log ratio)": -1.96}
{"querySequence": "GACCAAUCUGCCCUCAGAGCUCGAGAACAUCUUCGGAUGCAGAGGCGGCAGGCUUCGGUGGCGCGAUAGCGCCAACGUCCUCAACCUCCAAUGCAUCCCACCACAUGAUGAGGCCUGAAGAUCCUUGGUUUUUUU [A46C U112G G122U G135U]", "polymerase ribozyme fitness (log ratio)": -2.04}

Could you now look at the following variant, please?
Incoming: If you can, please state the reported polymerase ribozyme fitness (log ratio) value of GACCAAUCUGCCCUCGGAGCUCGAGAACAUCUUCGGAUGCAGAGGAGGCAGGCUUCGGUGGCGCGAUAGCGCCAACGUCCUCAACCUCCAAUGCAUCCCACCACAUGAUGAUACCUGAAGAGCCUUGGUUUUUUG [A16G G113A] .
Outgoing: -2.04
